Tested on: EKVX NSCLC
assay-method-text: NCI tumour cell line growth inhibition, 48 h
endpoint-name: TGI

compound | TGI
O=C(O)c1c2c(cc3c1CC1(Cc4ccccc4C1=O)C3)CCC2 (stereo not drawn) | > 100 µM

// for each compound in input: emit TGI
1. N.N.NCCCCCCCCCN.O=C([O-])CC(=O)[O-].O=C([O-])CC(=O)[O-].[Pt+4].[Pt+4]
2. CCOC(=O)/C(=C/c1cccc(C#N)c1)N(CC)CC

1. > 100 µM
2. > 100 µM

====

System: U251 CNS
Please answer using one outcome listed in class 1 (active), class 0 (inactive)

Examples with answers:
molecule | class-label
CCCCCc1ccc(S(=O)(=O)Nc2cc(-c3csc(NC(C)=O)n3)ccc2N2CCN(C)CC2)cc1 | class 0
CC/C=C/C/C=C/C/C=C/C/C=C/C/C=C/C/C=C/CCC(=O)Nc1ccn([C@@H]2O[C@H](CO)[C@@H](O)C2(F)F)c(=O)n1 | class 1
C=C1CC[C@@H](C(C)C)C[C@@H]2[C@H]([C@H](O)C[C@]2(C)O)[C@@]2(C)CC[C@@H]1O2 | class 0

Status in this test for CCN(CC)c1cc2oc3cc(N)cc(=N)c-3nc2cc1C ?
class 0

Another molecule: [F][Sn]([F])([c]1ccccc1)[c]1ccccc1
class 0

Another molecule: COc1ccc2c3c(Nc4ccc(/C(C)=N/O)cc4)[nH]c4ccccc4c-3c(N=O)c2c1
class 0

Another molecule: O=C(Nc1ccc(-n2cc(-c3ccncc3)c(-c3ccc(O)c(Cl)c3)n2)cc1)Nc1cccc(Cl)c1Cl
class 0

Another molecule: O=C(N/N=C/c1ccc([N+](=O)[O-])o1)c1ccc(O)cc1
class 0

Another molecule: O=c1oc2ccc(Br)cc2c(=O)n1-c1ccc(F)cc1F
class 0

Another molecule: C=CCN1CC2CON(C(=O)C(OC)(c3ccccc3)C(F)(F)F)C2C1C(C)C (stereo not given)
class 0
